Overview of recorded EC50 for various compounds
target: ΔF508-CFTR (Homo sapiens, UniProt P13569, DEL508-508); experiment: Membrane potential optical (FRET/VIPR) assay, identification of potentiator compounds; conditions: Table 3; assay not given
Sequence (P13569 with tags, fused parts or gaps DEL508-508): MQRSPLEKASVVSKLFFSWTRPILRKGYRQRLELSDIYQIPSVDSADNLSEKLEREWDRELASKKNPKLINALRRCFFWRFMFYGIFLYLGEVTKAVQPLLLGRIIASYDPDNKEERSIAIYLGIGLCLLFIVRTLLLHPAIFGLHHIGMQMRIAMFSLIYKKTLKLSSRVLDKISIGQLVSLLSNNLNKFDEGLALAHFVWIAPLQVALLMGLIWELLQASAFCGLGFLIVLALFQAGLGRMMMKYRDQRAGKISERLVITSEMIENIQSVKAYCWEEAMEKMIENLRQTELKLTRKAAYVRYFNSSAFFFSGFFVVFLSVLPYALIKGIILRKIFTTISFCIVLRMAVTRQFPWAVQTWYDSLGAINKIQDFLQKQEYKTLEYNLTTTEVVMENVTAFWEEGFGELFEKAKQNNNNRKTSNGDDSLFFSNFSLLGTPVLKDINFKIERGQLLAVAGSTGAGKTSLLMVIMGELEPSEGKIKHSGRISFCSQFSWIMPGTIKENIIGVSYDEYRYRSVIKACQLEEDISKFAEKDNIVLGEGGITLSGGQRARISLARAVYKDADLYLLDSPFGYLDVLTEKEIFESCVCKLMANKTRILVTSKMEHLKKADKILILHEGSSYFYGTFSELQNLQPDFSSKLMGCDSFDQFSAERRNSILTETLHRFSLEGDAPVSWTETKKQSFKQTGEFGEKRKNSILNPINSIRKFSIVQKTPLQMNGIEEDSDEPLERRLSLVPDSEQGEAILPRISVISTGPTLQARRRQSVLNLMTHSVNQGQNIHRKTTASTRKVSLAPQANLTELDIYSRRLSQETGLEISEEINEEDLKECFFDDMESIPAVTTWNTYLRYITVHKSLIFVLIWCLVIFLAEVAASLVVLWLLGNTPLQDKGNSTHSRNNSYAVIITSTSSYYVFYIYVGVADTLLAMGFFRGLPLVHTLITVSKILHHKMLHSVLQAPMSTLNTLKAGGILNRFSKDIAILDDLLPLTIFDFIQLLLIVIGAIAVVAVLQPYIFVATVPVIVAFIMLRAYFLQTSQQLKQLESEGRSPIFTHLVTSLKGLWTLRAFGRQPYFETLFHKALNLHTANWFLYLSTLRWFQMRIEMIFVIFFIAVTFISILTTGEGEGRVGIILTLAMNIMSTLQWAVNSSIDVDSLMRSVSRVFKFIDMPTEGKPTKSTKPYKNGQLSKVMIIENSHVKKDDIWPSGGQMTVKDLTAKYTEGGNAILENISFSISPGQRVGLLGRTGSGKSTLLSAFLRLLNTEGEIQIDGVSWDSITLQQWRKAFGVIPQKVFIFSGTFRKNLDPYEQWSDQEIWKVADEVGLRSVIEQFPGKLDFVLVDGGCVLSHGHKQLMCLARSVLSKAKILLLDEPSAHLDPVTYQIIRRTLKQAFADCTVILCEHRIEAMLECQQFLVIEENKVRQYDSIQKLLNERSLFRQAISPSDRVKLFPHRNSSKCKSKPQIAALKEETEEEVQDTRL

Known EC50 results, listed for orientation:
{"COMPOUND": "O=C(Nc1ccccc1-c1ccc(CO)cc1)c1c[nH]c2ccccc2c1=O [Compound 302]", "EC50": "10 to 25 µM"}
{"COMPOUND": "O=C(Nc1ccc(N2CCOCC2)nc1)c1c[nH]c2ccccc2c1=O [Compound 400]", "EC50": "25 to 60 µM"}
{"COMPOUND": "Cc1cccc2[nH]cc(C(=O)Nc3ccc(OC4CCCC4)cc3C(F)(F)F)c(=O)c12 [Compound 595]", "EC50": "< 10 µM"}
{"COMPOUND": "COc1ccc(Cl)cc1-c1cc2cc[nH]c2cc1NC(=O)c1c[nH]c2ccccc2c1=O [Compound 1]", "EC50": "< 10 µM"}

Need EC50, item CCc1ccc(Cl)c(CC)c1NC(=O)c1c[nH]c2ccccc2c1=O [Compound 91]
< 10 µM

Query CC(C)(C)OC(=O)N1CCC(C)(C)c2ccc(NC(=O)c3c[nH]c4ccccc4c3=O)cc21 [Compound 108] next
< 10 µM
